The reported measurements were obtained from PubChem BioAssay (NCATS).

# Test target: Rap guanine nucleotide exchange factor 3 (Homo sapiens)
# Procedure details: Confirmatory qHTS for antagonist of cAMP-regulated guanine nucleotide exchange factor 3 (EPAC1) (AID 1645880);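 note: plate controls were DMSO only for no effect and full effect of the ATA control for full effect; nearly all actives have a fitted effect of over 55% in size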
# Details: EPAC1 Rap1B-BODIPY-GDP exchange, fluorescence; series mostly up to 115 µM
Inconclusive results are not listed. Calls of active or inactive are those of the source. Calls come from the whole dose curve; as a rule, active = well fitted inhibition curve with a large enough effect; inconclusive = small, poorly fitted or top-dose-only effect; inactive = no such curve, though single readings can be large or run the other way.
Experimental endpoint: outcome

>>> endpoint_result("O=[N+]([O-])c1cc(Cl)ccc1NCCc1ccccn1")
"inactive"
>>> endpoint_result("COC(=O)c1cn(C(=O)c2cc(OC)c(OC)c(OC)c2)c2ccccc12")
"inactive"
>>> endpoint_result("Cc1cc2ccccn2c1C(=O)c1ccc(C#N)cc1")
"inactive"
>>> endpoint_result("Cc1ccc(N2C(=O)c3ccccc3C2C(=O)c2ccc(O)cc2O)cc1 (stereo unspecified)")
"inactive"
>>> endpoint_result("COc1ccc(S(=O)(=O)Nc2cccc(F)c2)cc1C")
"inactive"
>>> endpoint_result("CC1CC1c1ccc(/C=C(\\C#N)C(=O)Nc2ccccc2Cl)o1 (stereo unspecified)")
"inactive"
>>> endpoint_result("CCOc1ccccc1NC1c2ccccc2C(=O)N1Cc1ccco1 (stereo unspecified)")
"inactive"
>>> endpoint_result("COc1cccc(Cn2c(=O)cc(C)c3c(C)nn(C)c32)c1")
"inactive"
>>> endpoint_result("COc1ccc(C(=O)NCc2ccc3c(c2)CCN3C(=O)c2ccc(C)cc2)cc1")
"inactive"
>>> endpoint_result("O=C(CC[C@H]1O[C@@H](n2ccc(=O)[nH]c2=O)[C@H](O)[C@@H]1O)NCc1cccc2ccccc12")
"inactive"
>>> endpoint_result("CC(C)(C)c1ccc(N=C2SCC(=O)N2Cc2cccs2)cc1")
"inactive"

====

# Test system: TAB165
# Procedure details: qHTS profiling for inhibitors of Plasmodium falciparum proliferation (AID 504749); note: nearly all actives have a fitted effect of over 60% in size
# Details: P. falciparum in erythrocytes, SYBR Green DNA, 72 h; series mostly up to 12.8 µM
Records with an inconclusive call do not appear. Calls of active or inactive are those of the source. Calls follow the shape of the dose curve; as a rule, active = well fitted inhibition curve with a large enough effect; inconclusive = small, poorly fitted or top-dose-only effect; inactive = flat fitted curve, though single readings scatter.
Labels: active, inactive

>>> discrete_label("CC(=O)C[C@H](c1ccc([N+](=O)[O-])cc1)c1c(O)c2ccccc2oc1=O")
"inactive"
>>> discrete_label("CC1(C)OC2CC(=O)OC[C@@]23C1CC(=O)[C@]1(C)C3CC[C@@]2(C)C(c3ccoc3)OC(=O)C3O[C@@]321 (stereo not given in full)")
"inactive"
>>> discrete_label("CC(=O)OC1CCC2C3CCc4cc(O)ccc4C3CCC12C (stereo not given)")
"inactive"
>>> discrete_label("NCC1CCC(N)C(O[C@@H]2C(O)[C@H](O[C@H]3OC(CO)C(O)C(N)C3O)[C@@H](N)C[C@H]2N)O1 (stereo not given in full)")
"inactive"
>>> discrete_label("NS(=O)(=O)c1cc2c(cc1Cl)N[C@@H](CC1CCCC1)NS2(=O)=O")
"inactive"
>>> discrete_label("CN(C/C=C\\c1ccccc1)Cc1cccc2ccccc12")
"inactive"
>>> discrete_label("CC(C)C1CCC(C(=O)NC(Cc2ccccc2)C(=O)O)CC1 (stereo not given)")
"inactive"
>>> discrete_label("CC(C)(C)NC[C@H](O)COc1cccc2c1C[C@@H](O)[C@@H](O)C2")
"inactive"
>>> discrete_label("C[C@H]1CC[C@]2(OC1)O[C@@H]1C[C@@H]3[C@@H]4CC[C@H]5C[C@@H](O)CC[C@]5(C)[C@@H]4CC(=O)[C@@]3(C)[C@H]1[C@@H]2C")
"inactive"
>>> discrete_label("C[C@]12C=CC(=O)C=C1CCC1C2C(O)C[C@]2(C)C1CC[C@]2(O)C(=O)CO (stereo not given in full)")
"inactive"
>>> discrete_label("CCC[C@@H]1O[C@@H]2C[C@@H]3[C@H]4CCC5=CC(=O)C=C[C@@]5(C)[C@H]4[C@H](O)C[C@@]3(C)[C@@]2(C(=O)CO)O1")
"active"
>>> discrete_label("NC[C@@H]1O[C@@H](O[C@H]2[C@H](O)[C@H](O[C@@H]3O[C@H](CO)[C@@H](O)[C@H](N)[C@@H]3O)[C@@H](N)C[C@H]2N)[C@H](N)C[C@@H]1O")
"inactive"
>>> discrete_label("C[C@@]12C=CC(=O)C=C1CCC1C3CC(O)[C@@](O)(C(=O)CO)[C@]3(C)CC(O)[C@]12F (stereo not given in full)")
"inactive"
>>> discrete_label("C[C@]1(c2ccccc2)OC(C(=O)O)=CC1=O")
"inactive"
>>> discrete_label("C/C1=C2N=C(/C=C3N=C(/C(C)=C4\\[N-]C(C)(C5N=C1C(C)(CCC(=O)NCC(C)OP(=O)([O-])O[C@H]1C(O)C(n6cnc7cc(C)c(C)cc76)O[C@@H]1CO)C5CC(N)=O)C(C)(CC(N)=O)C4CCC(N)=O)C(C)(CC(N)=O)C\\3CCC(N)=O)C(C)(C)C/2CCC(N)=O.[CH2-]C1OC(n2cnc3c(N)ncnc32)C(O)C1O.[Co] (stereo not given in full)")
"inactive"

====

# System: AS120
# Procedure details: qHTS profiling for inhibitors of Plasmodium falciparum proliferation (AID 504749); note: nearly all actives have a fitted effect of over 60% in size
# Details: P. falciparum in erythrocytes, SYBR Green DNA, 72 h; series mostly up to 12.8 µM
# Method: NIH National Institute of Allergy and Infectious Diseases [NIAID] NIH Chemical Genomics Center [NCGC] […] Because mature erythrocytes lack DNA, only Plasmodium-derived DNA is detected. NCGC Assay Protocol Summary: The SYBR Green viability assay was adapted from a method described previously (Plouffe et al., 2008). […] The following morning, fluorescence intensity at 485(14) nm excitation and 535(25) nm emission wavelengths was measured on an EnVision (Perkin Elmer) plate reader. […]
Results filed as inconclusive are left out. Activity calls are given as the source filed them. Calls follow the shape of the dose curve; as a rule, active = well fitted inhibition curve with a large enough effect; inconclusive = small, poorly fitted or top-dose-only effect; inactive = flat fitted curve, though single readings scatter.
Labels: yes for active, no for inactive

>>> discrete_label("CN1CC(=O)N=C1N")
"no"
>>> discrete_label("C[C@]12C=CC(=O)C=C1CCC1C2C(O)C[C@]2(C)C1CC[C@]2(O)C(=O)CO (stereo partly drawn)")
"no"
>>> discrete_label("Cc1ccsc1/C=C\\C1=NCCCN1C")
"no"
>>> discrete_label("CCOC(=O)Oc1c(OC)cc(C(=O)O[C@H]2C[C@H]3CN4CCc5c([nH]c6cc(OC)ccc56)[C@@H]4C[C@H]3[C@@H](C(=O)OC)[C@@H]2OC)cc1OC")
"yes"
>>> discrete_label("CC(C)Oc1ccc2c(=O)cc(-c3ccccc3)oc2c1")
"no"
>>> discrete_label("Cc1ccc2c(c1)c1c3n2CCN[C@H]3CCC1")
"no"
>>> discrete_label("NC[C@@H]1O[C@H](O[C@H]2[C@H](O)[C@H](O[C@@H]3O[C@H](CO)[C@@H](O)[C@H](N)[C@@H]3O)[C@@H](N)C[C@H]2N)[C@@H](O)[C@H](O)[C@@H]1O")
"no"
>>> discrete_label("C=CCN1C(=CCO)[C@H]2C[C@H]3[C@@H]1CC[C@@]31c3ccccc3N3C=C4[C@@H]5N(/C=C/2[C@H]31)c1ccccc1[C@]51CC[C@H]2[C@H]1C[C@@H]4/C(=C/CO)N2CC=C")
"no"

====

# Test target: Rap guanine nucleotide exchange factor 3 (Homo sapiens) (UniProt O95398)
# Sequence (O95398 whole entry, looked up): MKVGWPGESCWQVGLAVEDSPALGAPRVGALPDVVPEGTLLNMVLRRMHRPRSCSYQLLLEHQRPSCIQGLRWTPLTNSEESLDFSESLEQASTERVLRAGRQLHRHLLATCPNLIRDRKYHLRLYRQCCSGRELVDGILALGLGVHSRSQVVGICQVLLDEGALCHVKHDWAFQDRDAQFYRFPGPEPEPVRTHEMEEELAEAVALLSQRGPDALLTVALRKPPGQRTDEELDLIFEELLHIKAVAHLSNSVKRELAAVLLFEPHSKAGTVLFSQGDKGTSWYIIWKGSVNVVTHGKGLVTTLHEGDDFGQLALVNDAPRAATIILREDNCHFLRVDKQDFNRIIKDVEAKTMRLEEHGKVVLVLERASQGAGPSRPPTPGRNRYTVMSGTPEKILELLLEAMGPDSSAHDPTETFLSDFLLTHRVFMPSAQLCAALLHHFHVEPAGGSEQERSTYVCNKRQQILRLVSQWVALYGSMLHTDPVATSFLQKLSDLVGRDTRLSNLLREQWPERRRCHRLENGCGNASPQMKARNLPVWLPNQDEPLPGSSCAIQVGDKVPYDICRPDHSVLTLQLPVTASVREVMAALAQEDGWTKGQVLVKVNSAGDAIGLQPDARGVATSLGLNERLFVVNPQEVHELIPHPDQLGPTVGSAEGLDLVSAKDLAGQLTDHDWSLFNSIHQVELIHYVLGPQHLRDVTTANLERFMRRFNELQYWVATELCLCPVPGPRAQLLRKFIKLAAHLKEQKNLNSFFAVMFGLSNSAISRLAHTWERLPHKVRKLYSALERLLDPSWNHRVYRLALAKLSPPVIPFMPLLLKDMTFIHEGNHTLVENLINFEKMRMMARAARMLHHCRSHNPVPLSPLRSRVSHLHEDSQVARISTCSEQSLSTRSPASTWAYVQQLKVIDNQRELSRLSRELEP
# Procedure details: Counterscreen qHTS for antagonist of cAMP-regulated guanine nucleotide exchange factor 3 (EPAC1) (AID 1645888);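 note: fluorescence loss as bound BODIPY-GDP is released from Rap1B; % of control where 0% means no effect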
# Details: Rap1B-BODIPY-GDP nucleotide exchange, fluorescence; series mostly up to 154 µM
# Source text: Assay Provider (PI): Xiaodong Cheng Ph.D. The University of Texas Medical Branch, […], TX MLPCN Grant: NS066510 In multi-cellular eukaryotic organisms, the effects of cAMP are transduced by two ubiquitously-expressed intracellular cAMP receptors, the classic protein kinase A/cAMP-dependent protein kinase (PKA/cAPK) and the more recently discovered exchange protein directly activated by cAMP/cAMP-regulated guanine nucleotide exchange factor (EPAC/cAMP-GEF). […]
Inconclusive results are not listed. The source made the active and inactive calls. The call rests on the fitted dose curve; in most records, active means well fitted inhibition curve with a large enough effect; inconclusive means small, poorly fitted or top-dose-only effect; inactive means no such curve, though single readings can be large or run the other way.
Experimental endpoint: activity change, negative = inhibition

>>> endpoint_result("COc1ccc(C(C)=O)cc1COc1ccc(F)cc1")
"5.38% [at 30.8 µM] (inactive)"
>>> endpoint_result("COc1cc(O)cc(O)c1C(=O)/C=C/c1ccccc1")
"inactive"
>>> endpoint_result("O=C1CC(=O)N(CCc2ccccc2)C(=O)N1CCc1ccccc1")
"inactive"
>>> endpoint_result("NS(=O)(=O)c1ccc(Nc2nc3ccccc3nc2NS(=O)(=O)c2cccc([N+](=O)[O-])c2)cc1")
"inactive"
>>> endpoint_result("CCN(CC)C(=S)Oc1c(Cl)cccc1Cl")
"-19.4% [at 30.8 µM] (inactive)"
>>> endpoint_result("COC(=O)c1cc2occc2n1Cc1ccc(F)cc1Cl")
"inactive"
>>> endpoint_result("COC(=O)c1c(SC)nc2ccccc2c1OCc1cccc(C)c1")
"inactive"
>>> endpoint_result("CC(C)c1ccc(NC(=O)c2ccc(Cn3nc(N4CCN(c5ccccc5)CC4)ccc3=O)o2)cc1")
"inactive"
>>> endpoint_result("O=C(OCc1c(-c2ccccc2)ncc2ccccc12)c1ccccc1C(F)(F)F")
"inactive"
>>> endpoint_result("O=C(O)C1CSC(c2ccco2)N1 (configuration not stated)")
"-26.6% [at 30.8 µM] (inactive)"
>>> endpoint_result("C/C(=C\\C(=O)c1ccccc1)Nc1ccc(O)cc1")
"-14.8% [at 30.8 µM] (inactive)"
>>> endpoint_result("CCOC(=O)c1ccc(N2C(=O)c3n[nH]c(-c4ccco4)c3C2c2ccccc2OC)cc1 (configuration not stated)")
"inactive"
